- target-or-system: Cell division control protein 42 homolog (Homo sapiens) (UniProt P60953)
- Sequence (P60953 whole entry, looked up): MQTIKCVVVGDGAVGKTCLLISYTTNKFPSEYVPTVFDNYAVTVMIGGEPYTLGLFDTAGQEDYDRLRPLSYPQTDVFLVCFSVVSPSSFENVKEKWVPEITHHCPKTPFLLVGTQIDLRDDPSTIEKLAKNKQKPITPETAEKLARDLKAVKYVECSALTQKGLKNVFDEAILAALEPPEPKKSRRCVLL
- method-notes: wildtype Cdc42 GTP-binding inhibitors, dose response, biochemical, multiplex bead flow cytometry, Bodipy-FL-GTP (AID 1334)
- conditions-used: bead-based flow cytometry, Bodipy-FL-GTP binding to GST-Cdc42; at 100 µM (top of the series)
Measured potencies and affinities stand elsewhere.
// reported fluorescence, percent of control (lower = inhibition) for each item listed
Number in %, nothing else.

Cc1nn(Cc2ccccc2)c(Cl)c1C(=O)O    45.4
O=C1NC(=S)N(Cc2ccco2)C(=O)/C1=C\c1cccs1    54.7
O=c1[nH]c(=S)[nH]c(O)c1N=Nc1ccc(S(=O)(=O)N2CCc3ccccc32)cc1    44.9
O=C(O)c1cn(Cc2ccccc2F)c2ccccc12    93
CCN(CC)c1ccc(/C=N/c2sc3c(c2C#N)C2CCN3CC2)c(O)c1    91.1
Cc1ccc(C)c(OCCCn2cc(C(=O)O)c3ccccc32)c1    61.7
O=C1CN=C(c2ccccc2)c2cc(Br)ccc2N1Cc1cc(=O)n2ccccc2n1    47.5
O=C(O)c1cn(Cc2ccccc2Cl)c2ccccc12    64.9
O=C(O)c1cn(Cc2ccc(Br)cc2)c2ccccc12    91.7
CCOC(=O)c1c(NC(=O)c2c(N)n(CCCOC)c3nc4ccccc4nc23)sc2c1CCCC2    77.3

Query (compound): O=c1[nH]c(=S)[nH]c(O)c1N=Nc1cc2c(cc1[N+](=O)[O-])OCO2 ; field requested: fluorescence, percent of control (lower = inhibition)
24.3

Query (compound): CCOCCCn1c(N)c(C(=O)Nc2sc3c(c2C(=O)OC)CCCC3)c2nc3ccccc3nc21 ; field requested: fluorescence, percent of control (lower = inhibition)
64.4

====

// reported inhibition for each item listed
- target-or-system: Lethal factor (Bacillus anthracis)
- method-notes: Lethal factor protease inhibitors, Bacillus anthracis, multiplex microsphere cleavage assay, validation set (AID 588461)
- conditions-used: flow cytometry, at 10 µM, stronger effect = higher value
Number in %, nothing else.

Consider the following illustrative entries.
O=C1OCCN1/N=C/c1ccc([N+](=O)[O-])o1    -8.7
O=C(N/C(=C/C=C\c1ccccc1)C(=O)N1CCOCC1)c1ccc(Br)cc1    -3.6
Cc1ccc(/C=N/NC(=O)C2(C)CC2(Br)Br)cc1 (configuration not stated)    -5.6

Query (molecule): Cc1ccc(S(=O)(=O)N[C@@H](C)C(=O)N2CCC(C(=O)N3CCC[C@H]3C(=O)O)CC2)cc1 ; field requested: inhibition
-1.7

Query (molecule): COC(=O)c1ccccc1OCCOCCOc1cccc2ccc(C)nc12 ; field requested: inhibition
-4

====

// reported inhibition for each item listed
- target-or-system: Lethal factor (Bacillus anthracis)
- method-notes: Lethal factor protease inhibitors, Bacillus anthracis, multiplex microsphere cleavage assay, validation set (AID 588461)
- conditions-used: flow cytometry, at 10 µM, stronger effect = higher value
Number in %, nothing else.

Consider the following illustrative entries.
c1ccc2c(c1)[nH]c1cnccc12    -4.7
Clc1ccc(COC(Cn2ccnc2)c2ccc(Cl)cc2Cl)cc1 (centres undefined)    -7
Cc1oc2ccc(OC(=O)c3cccs3)cc2c1C(=O)OC(C)C    3.1

Now for a further molecule.
Query (molecule): Cc1ccc(N2C(=O)c3ccccc3C2=O)cc1C ; field requested: inhibition
-0.8

====

// reported percent response of DMSO control for each item listed
- method-notes: modulators of CIT2-GFP expression in yeast, primary screen, S. cerevisiae, GFP fusion, multiplex flow cytometry (AID 1870)
- conditions-used: 3 h, at 10 µM, stronger effect = higher value
Active and inactive are the calls of the source. Cut-off read from the data, not from the text of the source: active = percent response of DMSO control above about 130%; inactive = the rest. Peptide text beside a SMILES is read from it.

Consider the following illustrative entries.
O=c1[nH]c(=S)n(-c2ccccc2)c(O)c1/C=N/N1CCCCC1c1cccnc1 (stereo not given)    90.8% (inactive)
OC(c1ccccc1)(c1ccccc1)C1CCNCC1    104% (inactive)
O=C1CC[C@@]2(O)[C@H]3Cc4ccc(O)c5c4[C@@]2(CCN3CC2CC2)[C@H]1O5    96.6% (inactive)
CC(C)C[C@H](NC(=O)[C@@H]1CCCN1C(=O)[C@@H](N)Cc1ccc(O)cc1)C(=O)NCC(N)=O (H-YPLG-NH2)    110% (inactive)

Now for a further molecule.
Query (molecule): NC(=O)CN1CCCC1=O ; field requested: percent response of DMSO control
118% (inactive)

====

- target-or-system: Botulinum neurotoxin type A (Clostridium botulinum) (UniProt P0DPI0)
- method-notes: BoNT/A light chain protease inhibitors, biochemical, multiplex microsphere flow cytometry, validation set (AID 588460)
- conditions-used: at 10 µM, stronger effect = higher value
// reported inhibition for each item listed
Number in %, nothing else.

Consider the following illustrative entries.
NC(=O)c1cccnc1    -0.2
COc1ccc2c(c1)CC1(CN2C)C(=O)NC(=O)N(CCc2ccccc2)C1=O (stereo unspecified)    1.1
Cc1nc2ccccc2c(=O)n1-c1ccc(C(=O)O)cc1    -0.2

Query (molecule): c1ccc(CNc2ncnc3nc[nH]c23)cc1 ; field requested: inhibition
-1.3

Query (molecule): Nc1nnc(CSCc2ccc(Cl)cc2Cl)s1 ; field requested: inhibition
-0.6

Query (molecule): O=C(c1cc2cc(Br)ccc2o1)N1CCCC1 ; field requested: inhibition
-4.2

Query (molecule): O=C(CS(=O)(=O)Cc1ccccc1)NCc1ccc2c(c1)OCO2 ; field requested: inhibition
0.1

Query (molecule): Cc1cc(-c2nn(-c3ccccc3F)cc2CN2CCCC(O)C2)c(C)s1 (stereo unspecified) ; field requested: inhibition
0.2

Query (molecule): COC(=O)c1cc(C(=O)NCCC(C)C)cc([N+](=O)[O-])c1 ; field requested: inhibition
-2.3

Query (molecule): Cc1cc(C(C)(C)C)c(O)c(C)c1CC1=NCCN1 ; field requested: inhibition
-1.1

Query (molecule): COc1cc(C(=O)OCCCN(C)C)cc(OC)c1OC ; field requested: inhibition
-0.5

Query (molecule): COc1ccc(CC(=O)Nc2cccc(C(=O)Nc3ccccc3C(=O)O)c2)cc1OC ; field requested: inhibition
-3.3

====

- target-or-system: Botulinum neurotoxin type A (Clostridium botulinum)
- method-notes: BoNT/A light chain protease inhibitors, biochemical, multiplex microsphere flow cytometry, validation set (AID 588460)
- conditions-used: at 10 µM, stronger effect = higher value
// reported inhibition for each item listed
Number in %, nothing else.

CCNC(=S)N(C)CCc1cc2c(c(OC)c1C=C1C(=O)N(C)C(=O)N(C)C1=O)OCO2    1.4

Query (molecule): O=C(O)CCC(=O)c1ccc(-c2ccccc2)cc1 ; field requested: inhibition
-1.1

Query (molecule): O=c1[nH]c(=S)n(-c2ccccc2)c(O)c1/C=N/N1CCCCC1c1cccnc1 (centres undefined) ; field requested: inhibition
0.8

Query (molecule): C[C@@H]1O[C@@H](O[C@H]2C[C@@H](O)[C@]3(CO)[C@H]4[C@H](O)C[C@]5(C)[C@@H](C6COC(=O)C6)CC[C@]5(O)[C@@H]4CC[C@]3(O)C2)[C@H](O)[C@H](O)[C@H]1O (some centres undefined) ; field requested: inhibition
-0.7

Query (molecule): C[C@H]1CCCC(=O)CCC/C=C/c2cc(O)cc(O)c2C(=O)O1 ; field requested: inhibition
0.5

Query (molecule): C#C[C@]1(O)CC[C@H]2[C@@H]3CCc4cc(OC5CCCC5)ccc4[C@H]3CC[C@@]21C ; field requested: inhibition
0.8

Query (molecule): Cc1c2c(nc3c(C)cccc13)OC(C)C2 (centres undefined) ; field requested: inhibition
-2.4

====

// reported differentiation response for each item listed
- method-notes: promoters of myeloid differentiation in arrested cells, primary screen, cell-based, GFP/MAC1 double positive, flow cytometry, validation set (AID 588685)
- conditions-used: ER-HoxA9 marrow cells, stronger effect = higher value
Number in %, nothing else.

Consider the following illustrative entries.
CCN(CC)C(=O)N[C@H]1C[C@@H]2c3cccc4[nH]cc(c34)C[C@H]2N(C)C1    21.8
O=C1CCCC2=C1C(c1cccnc1)Nc1ccccc1N2 (stereo not given)    -4.64
O=C1C(=O)c2ccccc2-c2ccccc21    100
C[C@]12CC[C@@H]3c4ccc(O)c(O)c4CC[C@H]3[C@@H]1CC[C@@H]2O    3.03
O=C1CN=C(c2ccccc2F)c2cc(Cl)ccc2N1    11.5

Query (compound): Cc1cc(Cl)ccc1OC(C)C(=O)O (stereo not given) ; field requested: differentiation response
7.37

Query (compound): Cc1cccc(C)c1NC1=NCCCS1 ; field requested: differentiation response
-9.89

Query (compound): COc1ccc(NC2=NCC(C)S2)cc1 (stereo not given) ; field requested: differentiation response
-3.11

Query (compound): Cc1cc2c(C(C)C)c(O)c(O)c(C=O)c2c(O)c1-c1c(C)cc2c(C(C)C)c(O)c(O)c(C=O)c2c1O ; field requested: differentiation response
16.7

Query (compound): COP(=O)(OC)C(O)C(Cl)(Cl)Cl (stereo not given) ; field requested: differentiation response
12.9
